biological target: CDK9 (Homo sapiens); construct: endogenous in cells; host or cells: MDA-MB-231; experiment: CDK protein degradation activity (Western blotting), CDK9; type: cell-based; conditions: MDA-MB-231 cells, 1 μM, 16 hours, Western blot
Sequence (P50750 whole entry): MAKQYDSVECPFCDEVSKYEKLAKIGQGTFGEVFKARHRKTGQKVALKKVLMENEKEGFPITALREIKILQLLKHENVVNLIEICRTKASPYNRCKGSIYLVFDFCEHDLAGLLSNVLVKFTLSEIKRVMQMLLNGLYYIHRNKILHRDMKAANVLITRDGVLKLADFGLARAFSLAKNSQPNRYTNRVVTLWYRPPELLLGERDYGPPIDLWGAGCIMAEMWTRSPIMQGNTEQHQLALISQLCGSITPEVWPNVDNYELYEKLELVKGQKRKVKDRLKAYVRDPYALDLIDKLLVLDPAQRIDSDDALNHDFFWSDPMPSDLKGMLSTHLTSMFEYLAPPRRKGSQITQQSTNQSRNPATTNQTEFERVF
Readout Kind: Enzyme degradation CDK9 (% remaining) @ 1 μM

Consider the worked cases shown below.
[
  {
    "Compound": "O=C1CC[C@H](N2C(=O)c3ccc(OCC(=O)N4CCC5(CC4)CC(N4CCC(c6ccc(Nc7ncnc8c7ncn8[C@H]7C[C@@H](NC(=O)Cc8ccccc8)C7)cc6)CC4)C5)cc3C2=O)C(=O)N1 [Compound 295]",
    "Value Measured": "0/0/0%"
  },
  {
    "Compound": "Cc1cccc(C(=O)N[C@H]2C[C@@H](n3cnc4c(NCc5ccc(OCCCN6CCN(C(=O)COc7ccc8c(c7)C(=O)N([C@H]7CCC(=O)NC7=O)C8=O)CC6)cc5)ncnc43)C2)n1 [Compound 112]",
    "Value Measured": "0%"
  },
  {
    "Compound": "O=C1CCC(N2C(=O)c3ccc(N4CCC(C(=O)N5CCC(CN6CCC(CCNc7ncnc8c7ncn8[C@H]7C[C@@H](NC(=O)c8c(Cl)cccc8Cl)C7)CC6)CC5)CC4)cc3C2=O)C(=O)N1 (some centres unmarked) [Compound 400]",
    "Value Measured": "0/0/0%"
  },
  {
    "Compound": "O=C1CC[C@H](n2nnc3ccc(N4CCC5(CC4)CC(N4CCN(c6ccc(Nc7ncnc8c7ncn8[C@H]7C[C@@H](NC(=O)c8c(Cl)cccc8Cl)C7)cc6)CC4)C5)cc3c2=O)C(=O)N1 [Compound 317]",
    "Value Measured": "0/0/0%"
  }
]

In: Data request, read-out Enzyme degradation CDK9 (% remaining) @ 1 μM, for O=C1CC[C@H](N2C(=O)c3ccc(N4CC(C(=O)N5CCC(N6CCN(c7ccc(Nc8ncnc9c8ncn9[C@H]8C[C@@H](NC(=O)Cc9ccccc9)C8)cc7)CC6)CC5)C4)cc3C2=O)C(=O)N1 [Compound 342]
Out: 0/0/0%

These measurements were taken from patent US20260125382A1.
